# TARGET SYSTEM: Glutathione S-transferase Mu 1 (Homo sapiens)
# ASSAY TEXT: Specific activity of human recombinant Glutathione S-transferase Mu 1 at 50 uM by spectrophotometric analysis in presence of glutathione
ENDPOINT LABEL: Activity (µmol/min/mg)

>>> df
                                   molecule                             target_system  unit_annotation  observed_measurement
0  CCOC(=O)N1CCN(/[N+]([O-])=N/Oc2ccc([N+](=O)[O-])cc2[N+](=O)[O-])CC1  Glutathione S-transferase Mu 1 (Homo sapiens)      µmol/min/mg                   126
1  CCCOC(=O)N1CCN(/[N+]([O-])=N/Oc2ccc([N+](=O)[O-])cc2[N+](=O)[O-])CC1  Glutathione S-transferase Mu 1 (Homo sapiens)      µmol/min/mg                   126
2  CCOC(=O)N1CC(C)N(/[N+]([O-])=N/Oc2ccc([N+](=O)[O-])cc2[N+](=O)[O-])CC1C (centres undefined)  Glutathione S-transferase Mu 1 (Homo sapiens)      µmol/min/mg                    49
3  CCOC(=O)N1CCCN(/[N+]([O-])=N/Oc2ccc([N+](=O)[O-])cc2[N+](=O)[O-])CC1  Glutathione S-transferase Mu 1 (Homo sapiens)      µmol/min/mg                    38

###

# ASSAY TEXT: Antiproliferative activity against human UO-30 cells after 72 hrs by MTT assay
# Type: functional, cell-based
# CONDITIONS: UO-30, 72 h
ENDPOINT LABEL: IC50 (nM)

                                 mol_smiles  observed_measurement
0  CCOC(=O)N1CCN(/[N+]([O-])=N/Oc2ccc([N+](=O)[O-])cc2[N+](=O)[O-])CC1                   900

###

As shown below, each of these compounds has a reported Activity value.
# TARGET SYSTEM: Glutathione S-transferase A1 (Homo sapiens) (UniProt P08263)
# Sequence (P08263 whole entry): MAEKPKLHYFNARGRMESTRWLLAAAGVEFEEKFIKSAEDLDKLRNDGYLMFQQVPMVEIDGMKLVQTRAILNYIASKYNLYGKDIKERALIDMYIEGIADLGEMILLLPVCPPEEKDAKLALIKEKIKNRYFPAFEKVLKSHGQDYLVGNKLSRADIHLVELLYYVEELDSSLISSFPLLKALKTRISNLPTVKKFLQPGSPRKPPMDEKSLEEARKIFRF
# ASSAY TEXT: Specific activity of human recombinant Glutathione S-transferase A1 at 50 uM by spectrophotometric analysis in presence of glutathione relative to O2-(2,4-dinitrophenyl) 1-[(4-ethoxycarbonyl)piperazin-1-yl]diazen-1-ium-1,2-diolate
ENDPOINT LABEL: Activity

                                   compound  observed_measurement
0  COC(=O)N1CCN(/[N+]([O-])=N/Oc2ccc([N+](=O)[O-])cc2[N+](=O)[O-])CC1                  0.68
1  CCOC(=O)N1CCN(/[N+]([O-])=N/Oc2ccc([N+](=O)[O-])cc2[N+](=O)[O-])CC1                     1
2  CCCOC(=O)N1CCN(/[N+]([O-])=N/Oc2ccc([N+](=O)[O-])cc2[N+](=O)[O-])CC1                  0.89
3  CCOC(=O)N1CCN(/[N+]([O-])=N/Oc2ccc([N+](=O)[O-])cc2[N+](=O)[O-])C(C)C1 (stereo not drawn)                  0.71
4  CCOC(=O)N1CCCN(/[N+]([O-])=N/Oc2ccc([N+](=O)[O-])cc2[N+](=O)[O-])CC1                  0.25
5  CCOC(=O)N1C(C)CN(/[N+]([O-])=N/Oc2ccc([N+](=O)[O-])cc2[N+](=O)[O-])CC1C (stereo not drawn)                  1.06
6  CCOC(=O)N1CC(C)N(/[N+]([O-])=N/Oc2ccc([N+](=O)[O-])cc2[N+](=O)[O-])CC1C (stereo not drawn)                  0.27
7  CCOC(=O)N1CCN(/[N+]([O-])=N/Oc2ccc([N+](=O)[O-])cc2[N+](=O)[O-])CC1C (stereo not drawn)                  0.84

###

# TARGET SYSTEM: Glutathione S-transferase Mu 1 (Homo sapiens) (UniProt P09488)
# ASSAY TEXT: Specific activity of human recombinant Glutathione S-transferase Mu 1 at 50 uM by spectrophotometric analysis in presence of glutathione
As shown below, each of these molecules has a reported Activity value.
ENDPOINT LABEL: Activity (µmol/min/mg)

In [3]: df
Out[3]:
                                   molecule  unit_annotation  observed_measurement
0  COC(=O)N1CCN(/[N+]([O-])=N/Oc2ccc([N+](=O)[O-])cc2[N+](=O)[O-])CC1      µmol/min/mg                   102
1  CCOC(=O)N1C(C)CN(/[N+]([O-])=N/Oc2ccc([N+](=O)[O-])cc2[N+](=O)[O-])CC1C (centres undefined)      µmol/min/mg                   172
2  CCOC(=O)N1CCN(/[N+]([O-])=N/Oc2ccc([N+](=O)[O-])cc2[N+](=O)[O-])C(C)C1 (centres undefined)      µmol/min/mg                   110
3  CCOC(=O)N1CCN(/[N+]([O-])=N/Oc2ccc([N+](=O)[O-])cc2[N+](=O)[O-])CC1C (centres undefined)      µmol/min/mg                   112

###

# TARGET SYSTEM: Glutathione S-transferase P (Homo sapiens)
# ASSAY TEXT: Specific activity of human Glutathione S-transferase P at 50 uM by spectrophotometric analysis in presence of glutathione
// boundary case: Activity equal to 1 µmol/min/mg maps to Not satisfied; strictly smaller maps to Satisfied

                                   compound                             target_system    class_label
0  CCOC(=O)N1CCN(/[N+]([O-])=N/Oc2ccc([N+](=O)[O-])cc2[N+](=O)[O-])CC1  Glutathione S-transferase P (Homo sapiens)  Not satisfied
1  CCCOC(=O)N1CCN(/[N+]([O-])=N/Oc2ccc([N+](=O)[O-])cc2[N+](=O)[O-])CC1  Glutathione S-transferase P (Homo sapiens)  Not satisfied
2  CCOC(=O)N1CC(C)N(/[N+]([O-])=N/Oc2ccc([N+](=O)[O-])cc2[N+](=O)[O-])CC1C (stereo not drawn)  Glutathione S-transferase P (Homo sapiens)      Satisfied
3  CCOC(=O)N1CCN(/[N+]([O-])=N/Oc2ccc([N+](=O)[O-])cc2[N+](=O)[O-])C(C)C1 (stereo not drawn)  Glutathione S-transferase P (Homo sapiens)      Satisfied
4  CCOC(=O)N1CCN(/[N+]([O-])=N/Oc2ccc([N+](=O)[O-])cc2[N+](=O)[O-])CC1C (stereo not drawn)  Glutathione S-transferase P (Homo sapiens)  Not satisfied
5  CCOC(=O)N1C(C)CN(/[N+]([O-])=N/Oc2ccc([N+](=O)[O-])cc2[N+](=O)[O-])CC1C (stereo not drawn)  Glutathione S-transferase P (Homo sapiens)  Not satisfied
6  CCOC(=O)N1CCCN(/[N+]([O-])=N/Oc2ccc([N+](=O)[O-])cc2[N+](=O)[O-])CC1  Glutathione S-transferase P (Homo sapiens)      Satisfied

###

# TARGET SYSTEM: Glutathione S-transferase Mu 1 (Homo sapiens) (UniProt P09488)
# Sequence (whole entry): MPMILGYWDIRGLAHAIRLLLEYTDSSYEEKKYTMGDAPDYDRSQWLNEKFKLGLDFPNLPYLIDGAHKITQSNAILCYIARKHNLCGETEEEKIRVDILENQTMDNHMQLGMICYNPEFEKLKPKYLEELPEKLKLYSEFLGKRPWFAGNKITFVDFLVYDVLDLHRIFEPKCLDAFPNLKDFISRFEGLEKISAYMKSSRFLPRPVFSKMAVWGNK
# ASSAY TEXT: Specific activity of human recombinant Glutathione S-transferase Mu 1 at 50 uM by spectrophotometric analysis in presence of glutathione relative to O2-(2,4-dinitrophenyl) 1-[(4-ethoxycarbonyl)piperazin-1-yl]diazen-1-ium-1,2-diolate
Use 0.9 as the dividing line for Activity, with the line itself on the rule met side and lower values as rule not met.

                                   compound   class_label
0  CCOC(=O)N1C(C)CN(/[N+]([O-])=N/Oc2ccc([N+](=O)[O-])cc2[N+](=O)[O-])CC1C (stereo not drawn)      rule met
1  CCOC(=O)N1CCN(/[N+]([O-])=N/Oc2ccc([N+](=O)[O-])cc2[N+](=O)[O-])C(C)C1 (stereo not drawn)  rule not met
2  COC(=O)N1CCN(/[N+]([O-])=N/Oc2ccc([N+](=O)[O-])cc2[N+](=O)[O-])CC1  rule not met
3  CCOC(=O)N1CCCN(/[N+]([O-])=N/Oc2ccc([N+](=O)[O-])cc2[N+](=O)[O-])CC1  rule not met
4  CCOC(=O)N1CCN(/[N+]([O-])=N/Oc2ccc([N+](=O)[O-])cc2[N+](=O)[O-])CC1      rule met
5  CCCOC(=O)N1CCN(/[N+]([O-])=N/Oc2ccc([N+](=O)[O-])cc2[N+](=O)[O-])CC1      rule met
6  CCOC(=O)N1CC(C)N(/[N+]([O-])=N/Oc2ccc([N+](=O)[O-])cc2[N+](=O)[O-])CC1C (stereo not drawn)  rule not met
